system: Rabbit Psoas myofibrils (skeletal myosin ATPase); experiment: Myofibril ATPase assay, rabbit psoas (skeletal) myofibrils; assay type: biochemical; conditions: rabbit psoas myofibrils; Y75 value
quantity.name: Skeletal EC25 (µM)
Just the number please, in µM, no unit attached.

- compound: "C[C@H](NC(=O)Cc1c(C2CC2)c2cnccc2[nH]c1=O)c1ccc(C#N)cn1"
  u: "µM"
  Skeletal EC25: 8.74
- compound: "Cc1nccc2[nH]c(=O)c(CC(=O)N[C@@H]3COc4cccnc43)c(C)c12 (single isomer, unassigned)"
  u: "µM"
  Skeletal EC25: 100.00
- compound: "C[C@@H](NC(=O)Cc1c(C2CC2)c2cnccc2[nH]c1=O)c1ccc(C#N)cn1"
  u: "µM"
  Skeletal EC25: 42.18
- compound: "Cc1nccc2[nH]c(=O)c(CC(=O)N[C@H]3CCc4cc(F)cc(F)c43)c(C)c12 [compound 406]"
  u: "µM"
  Skeletal EC25: 0.02
- compound: "Cc1ccccc1[C@H](CO)NC(=O)Cc1c(C)c2c(C)nccc2[nH]c1=O (single isomer, unassigned)"
  u: "µM"
  Skeletal EC25: 27.39
- compound: "Cc1ccc2[nH]c(=O)c(CC(=O)N[C@@H](C)c3ncc(C#N)cc3F)c(C)c2n1"
  u: "µM"
  Skeletal EC25: 0.55
- compound: "C[C@H](NC(=O)[C@@H](C)c1cc2c(C3CC3)nccc2[nH]c1=O)c1ccc(F)cc1F (single isomer, unassigned)"
  u: "µM"
  Skeletal EC25: 157.50
- compound: "Cc1ccc([C@@H](CO)NC(=O)Cc2c(C)c3c(C)nccc3[nH]c2=O)cc1 (single isomer, unassigned)"
  u: "µM"
  Skeletal EC25: 26.39
- compound: "Cc1nc(C#N)cnc1[C@@H](C)NC(=O)Cc1c(C)c2nc(C(F)(F)F)ccc2[nH]c1=O (single isomer, unassigned)"
  u: "µM"
  Skeletal EC25: 2.85
- compound: "C[C@H](NC(=O)Cc1c(C2CC2)c2cnccc2[nH]c1=O)c1ncc(C#N)cc1F"
  u: "µM"
  Skeletal EC25: 0.61

Fill blank: measured Skeletal EC25 of the compound Cc1c(CC(=O)N[C@@H](CO)c2ncc(F)cc2F)c(=O)[nH]c2ccnc(C#N)c12 is ____. 0.13

Give its Skeletal EC25 value. Item: Cc1nccc2[nH]c(=O)c(CC(=O)N[C@@H](CO)c3ncc(F)cc3F)c(C)c12 (single isomer, unassigned) 1.82

====

Entries and their Ventricular EC25 values follow.
Target: Porcine ventricle myofibrils (ventricular myosin ATPase) (Sus scrofa, UniProt P79293)
Construct: Myofibrils from porcine cardiac muscle was isolated from the left ventricle of Yucatan minipigs; tissue Exemplar Genetics; host or cells: left ventricle of Yucatan minipigs, myofibrils prepared in house
Sequence (P79293 whole entry): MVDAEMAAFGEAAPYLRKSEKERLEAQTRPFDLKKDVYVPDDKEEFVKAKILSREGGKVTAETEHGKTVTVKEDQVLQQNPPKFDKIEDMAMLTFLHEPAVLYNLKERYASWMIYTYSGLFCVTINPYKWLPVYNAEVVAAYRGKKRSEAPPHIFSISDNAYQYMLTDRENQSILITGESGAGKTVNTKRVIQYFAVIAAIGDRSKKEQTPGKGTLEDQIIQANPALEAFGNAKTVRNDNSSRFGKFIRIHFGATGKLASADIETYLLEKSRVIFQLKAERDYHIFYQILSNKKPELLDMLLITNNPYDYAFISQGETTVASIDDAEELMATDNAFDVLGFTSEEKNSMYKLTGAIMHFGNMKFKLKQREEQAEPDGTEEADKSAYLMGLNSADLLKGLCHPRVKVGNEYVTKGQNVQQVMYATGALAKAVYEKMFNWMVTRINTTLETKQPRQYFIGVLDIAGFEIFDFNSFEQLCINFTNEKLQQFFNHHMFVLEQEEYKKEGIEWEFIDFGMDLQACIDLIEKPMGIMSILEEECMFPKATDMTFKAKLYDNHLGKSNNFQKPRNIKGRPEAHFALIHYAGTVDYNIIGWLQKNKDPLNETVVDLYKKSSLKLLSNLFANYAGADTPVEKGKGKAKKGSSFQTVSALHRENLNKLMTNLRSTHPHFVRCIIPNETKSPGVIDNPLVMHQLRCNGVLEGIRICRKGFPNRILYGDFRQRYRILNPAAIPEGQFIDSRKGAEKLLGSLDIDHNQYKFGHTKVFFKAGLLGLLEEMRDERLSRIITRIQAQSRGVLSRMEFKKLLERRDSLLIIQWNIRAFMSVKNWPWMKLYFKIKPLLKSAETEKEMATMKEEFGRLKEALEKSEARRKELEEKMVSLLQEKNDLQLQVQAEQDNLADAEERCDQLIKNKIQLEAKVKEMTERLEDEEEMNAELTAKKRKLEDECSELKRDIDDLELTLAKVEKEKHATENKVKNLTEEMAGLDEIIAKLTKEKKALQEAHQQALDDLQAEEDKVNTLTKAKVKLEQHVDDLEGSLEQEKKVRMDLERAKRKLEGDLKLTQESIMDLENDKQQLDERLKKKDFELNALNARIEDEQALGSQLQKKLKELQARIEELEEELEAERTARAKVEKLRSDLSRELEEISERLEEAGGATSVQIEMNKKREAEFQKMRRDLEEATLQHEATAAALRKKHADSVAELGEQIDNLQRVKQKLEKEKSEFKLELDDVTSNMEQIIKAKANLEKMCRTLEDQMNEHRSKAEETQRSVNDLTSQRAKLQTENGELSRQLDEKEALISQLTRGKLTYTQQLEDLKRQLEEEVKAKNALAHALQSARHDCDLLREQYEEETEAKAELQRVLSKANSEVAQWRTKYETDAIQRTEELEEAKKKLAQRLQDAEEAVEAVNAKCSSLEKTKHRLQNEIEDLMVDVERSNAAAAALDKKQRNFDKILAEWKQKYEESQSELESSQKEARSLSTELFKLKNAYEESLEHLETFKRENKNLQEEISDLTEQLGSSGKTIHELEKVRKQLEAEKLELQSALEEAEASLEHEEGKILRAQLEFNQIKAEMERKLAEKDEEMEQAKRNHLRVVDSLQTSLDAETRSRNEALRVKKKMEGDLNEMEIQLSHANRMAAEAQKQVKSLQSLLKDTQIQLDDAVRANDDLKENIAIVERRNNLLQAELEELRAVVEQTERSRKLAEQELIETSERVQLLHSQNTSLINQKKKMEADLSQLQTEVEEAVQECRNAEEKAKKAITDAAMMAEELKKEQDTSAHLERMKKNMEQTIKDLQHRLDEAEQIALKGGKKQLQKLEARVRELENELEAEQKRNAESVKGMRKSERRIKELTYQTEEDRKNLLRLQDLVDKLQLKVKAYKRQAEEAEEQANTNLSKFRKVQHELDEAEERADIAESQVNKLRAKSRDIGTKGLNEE
Assay: Myofibril ATPase assay, porcine ventricle myofibrils
Assay type: biochemical, porcine (Yucatan minipigs)
Settings: porcine ventricle myofibrils; Y75 value
Protocol: Example 1. Myofibril ATPase Assay Myofibril ATPase assays are known in the art to be useful in evaluating small molecules for the treatment of HCM and other cardiac indications. Myosin ATPase activity is assessed by using a coupled reaction system, in which ADP generated by the myosin ATPase function is coupled to the disappearance of NADH through the pyruvate kinase/lactate dehydrogenase (PK-LDH) system. […]
Kindly provide the numeric value in µM only, without the unit symbol.

- substance.smiles: "Cc1nccc2[nH]c(=O)c(CC(=O)NC[C@H](CO)c3ccccc3)c(C)c12"
  Ventricular EC25 [µM]: 100.00
- substance.smiles: "Cc1cc(C#N)nnc1[C@@H](C)NC(=O)Cc1c(C)c2c(C)nccc2[nH]c1=O"
  Ventricular EC25 [µM]: 0.57

Return reported Ventricular EC25; argument: C[C@H](NC(=O)Cc1c(C(F)(F)F)c2c(Cl)nccc2[nH]c1=O)c1ccc(F)cc1F 1.94
